read-out: Collagen I, COL1A1 (gene 1277); experiment: BSK_MyoF_CollagenI: BioMAP Diversity Plus: MyoF Assay for Collagen I Biomarker Activity (AID 2284238); settings: primary human lung fibroblasts
Calls of active or inactive are those of the source. Rule for the calls: active = hit-call score of the fitted dose curve at least 0.9, where 1 is the maximum; inactive = score below 0.9.
Outcomes: Yes = active, No = inactive

compound=O=[N+]([O-])c1ccc(Nc2ccccc2)cc1 group_label=No
compound=O=S(=O)(C(Cl)(Cl)Cl)C(Cl)(Cl)Cl group_label=Yes
compound="CC(C)(COCC1CO1)COCC1CO1 (stereo not drawn)" group_label=No
compound=CCOP(=O)(OCC)OC(=CCl)c1ccc(Cl)cc1Cl group_label=Yes
compound=Cc1cccc(OP(=O)(Oc2cccc(C)c2)Oc2cccc(C)c2)c1 group_label=No
compound=Cc1ccc2nc3sc(=O)sc3nc2c1 group_label=No
compound=Oc1ccc(Cc2ccc(O)cc2)cc1 group_label=No
compound="C=CC(Cl)CCl (stereo not drawn)" group_label=Yes
compound="CC(C)=CC1C(C(=O)OCc2cccc(Oc3ccccc3)c2)C1(C)C (stereo not drawn)" group_label=No
compound="OC(Cc1ccccc1Cl)(Cn1[nH]cnc1=S)C1(Cl)CC1 (stereo not drawn)" group_label=Yes
compound=CCN(CC)C(=O)C(Cl)=C(C)OP(=O)(OC)OC group_label=No
compound="CCOC(=O)C(SP(=S)(OC)OC)c1ccccc1 (stereo not drawn)" group_label=No
compound=CC(C)(C)c1cc([N+](=O)[O-])cc(C(C)(C)C)c1O group_label=No

----------
Test: CEETOX_H295R_ESTRADIOL: CeeTox H295R High-throughput Steroidogenesis Assay for Estradiol (AID 2283440);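 note: estradiol secreted into medium quantified by LC-MS/MS after dansyl derivatisation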
Settings: actives raise or lower the signal
Protocol: CEETOX_H295R is a cell-based, multiplexed-readout assay that uses H295R, a human adrenal gland cell line, with measurements taken at 48 hours after chemical dosing in a 96-well plate.CEETOX_H295R_ESTRADIOL is one of 23 assay component(s) measured or calculated from the CEETOX_H295R assay. […] This assay endpoint, CEETOX_H295R_ESTRADIOL, was analyzed with bidirectional fitting relative to DMSO as the negative control and baseline of activity. […]
Calls of active or inactive are those of the source. How the source made its calls: active means hit-call score of the fitted dose curve at least 0.9, where 1 is the maximum; inactive means score below 0.9.
Classes used: 1 (yes) (active), 0 (no) (inactive)

compound="OC(Cc1ccccc1Cl)(Cn1cncn1)C1(Cl)CC1 (centres undefined)" group_label="1 (yes)"
compound="CC(C)(COCC1CO1)COCC1CO1 (centres undefined)" group_label="0 (no)"
compound="CCCSP(=S)(OCC)Oc1ccc(SC)cc1 (centres undefined)" group_label="0 (no)"
compound=CCOCn1c(-c2ccc(Cl)cc2)c(C#N)c(Br)c1C(F)(F)F group_label="1 (yes)"

----------
assay: ACEA_ER_AUC_viability: ACEA Biosciences xCELLigence Real-Time Cell Analysis on Estrogen Receptor Agonism for Viability (AID 2283782);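 note: continuous compound exposure with impedance area under curve over 80 h; hit means loss of impedance signal meaning reduced cell growth or viability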
Records with an inconclusive call do not appear. Activity calls are given as the source filed them. The calls were made as follows: active = hit-call score of the fitted dose curve at least 0.9, where 1 is the maximum; inconclusive = response in the unintended direction; inactive = score below 0.9.
REPORTED METRIC: AC50

molecule=Cc1cc(Cl)ccc1O reported_metric=AC50 test_value=inactive
molecule=Nc1nc(N)nc(Cl)n1 reported_metric=AC50 test_value=inactive
molecule=O=C(Cc1ccccc1)OCCc1ccccc1 reported_metric=AC50 test_value="82.5 µM (active)"
molecule=O=C(CCl)Nc1ccccc1 reported_metric=AC50 test_value="10.8 µM (active)"
molecule=COc1ccccc1N reported_metric=AC50 test_value=inactive
molecule=CCCCCCCCCCBr reported_metric=AC50 test_value=inactive
molecule=C=C(C)C(=O)OCCCCOC(=O)C(=C)C reported_metric=AC50 test_value="30.7 µM (active)"
molecule=CN(C1CCCCC1)C1CCCCC1 reported_metric=AC50 test_value="68.6 µM (active)"
molecule=Brc1ccc(Br)cc1 reported_metric=AC50 test_value=inactive
molecule=O=C=Nc1ccc(Cl)cc1 reported_metric=AC50 test_value="29.9 µM (active)"
molecule=C[N+](C)(C)Cc1ccccc1 reported_metric=AC50 test_value=inactive
molecule="CCC(C)(C#N)N=NC(C)(C#N)CC (configuration not stated)" reported_metric=AC50 test_value=inactive
molecule=O=S1(=O)OC(c2cc(Br)c(O)c(Br)c2)(c2cc(Br)c(O)c(Br)c2)c2ccccc21 reported_metric=AC50 test_value=inactive
molecule=COc1nn(C(=O)NS(=O)(=O)c2ccccc2OC(F)(F)F)c(=O)n1C reported_metric=AC50 test_value=inactive
molecule="CC(C)=CC1C(C(=O)OCc2cccc(Oc3ccccc3)c2)C1(C)C (configuration not stated)" reported_metric=AC50 test_value=inactive
molecule=CC(C)N(C(=O)CCl)c1ccccc1 reported_metric=AC50 test_value="18.5 µM (active)"
molecule=N#CS reported_metric=AC50 test_value=inactive
